Entries annotated with measured pIC50
Biological target: human HIF-PHD2 (Homo sapiens, UniProt Q9GZT9)
Sequence (Q9GZT9 2-426 limits assumed): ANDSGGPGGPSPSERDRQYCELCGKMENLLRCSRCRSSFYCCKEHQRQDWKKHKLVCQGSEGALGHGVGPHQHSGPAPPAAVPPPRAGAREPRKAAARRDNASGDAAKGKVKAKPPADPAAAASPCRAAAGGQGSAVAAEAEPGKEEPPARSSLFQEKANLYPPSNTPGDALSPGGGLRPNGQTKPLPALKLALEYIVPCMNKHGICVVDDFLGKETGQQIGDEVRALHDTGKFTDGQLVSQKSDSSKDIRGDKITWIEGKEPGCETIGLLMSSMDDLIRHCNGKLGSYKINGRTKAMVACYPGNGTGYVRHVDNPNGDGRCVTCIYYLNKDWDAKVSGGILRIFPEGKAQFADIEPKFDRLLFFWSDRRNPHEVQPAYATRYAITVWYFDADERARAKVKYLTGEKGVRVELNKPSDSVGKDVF
pIC50: −log10 of the molar value.

- item-smiles: "O=C(O)c1cnn(-c2nc(O)c3c(cnn3C(c3ccc(Cl)cc3)c3ccc(Cl)cc3)n2)c1"
  tgt: "human HIF-PHD2 (Homo sapiens, UniProt Q9GZT9)"
  pIC50: 7.70
- item-smiles: "O=C(O)c1cnn(-c2nc(O)c3c(cnn3CCCC3CCCCC3)n2)c1"
  tgt: "human HIF-PHD2 (Homo sapiens, UniProt Q9GZT9)"
  pIC50: 7.51
- item-smiles: "O=C(O)c1cnn(-c2nc(O)c3c(cnn3Cc3ccc(-c4ccccc4OC(F)(F)F)cc3F)n2)c1"
  tgt: "human HIF-PHD2 (Homo sapiens, UniProt Q9GZT9)"
  pIC50: 7.68

* * *

Biological target: human HIF-PHD3 (Homo sapiens)
Sequence (Q9H6Z9 whole entry): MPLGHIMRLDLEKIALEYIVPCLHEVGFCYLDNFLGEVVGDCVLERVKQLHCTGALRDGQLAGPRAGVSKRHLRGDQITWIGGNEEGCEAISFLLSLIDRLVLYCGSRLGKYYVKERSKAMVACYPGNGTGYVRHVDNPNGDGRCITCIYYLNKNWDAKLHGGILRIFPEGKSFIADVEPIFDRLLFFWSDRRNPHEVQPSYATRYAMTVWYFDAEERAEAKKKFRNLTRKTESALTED
pIC50: −log10 of the molar value.
Entries annotated with measured pIC50
endpoint-name: pIC50

- compound: "O=C(O)c1cnn(-c2nc(O)c3c(cnn3CC3CCN(c4ccc(C(F)(F)F)cn4)CC3)n2)c1"
  meas-value: 6.80
- compound: "O=C(O)c1cnn(-c2nc(O)c3c(cnn3CCCOc3ccc4c(c3)CCCC4)n2)c1"
  meas-value: 6.27
- compound: "CC[C@@H](c1ccccc1)n1ncc2nc(-n3cc(C(=O)O)cn3)nc(O)c21"
  meas-value: 6.00
- compound: "Cc1nn(Cc2ccc(-c3ccccc3)cc2)c2c(O)nc(-n3cc(C(=O)O)cn3)nc12"
  meas-value: 7.17
- compound: "CC(C)CC(CC(C)C)n1ncc2nc(-n3cc(C(=O)O)cn3)nc(O)c21"
  meas-value: 5.96
- compound: "CC1CC(n2ncc3nc(-n4cc(C(=O)O)cn4)nc(O)c32)CC(C)(C)C1 (single isomer, unassigned) [Example 410]"
  meas-value: 6.37
- compound: "Cc1nn(C2CCCCC2)c2c(O)nc(-n3cc(C(=O)O)cn3)nc12"
  meas-value: 5.42
- compound: "Cc1c(Cn2ncc3nc(-n4cc(C(=O)O)cn4)nc(O)c32)ccc2ccccc12"
  meas-value: 6.60
- compound: "CC1(Cn2ncc3nc(-n4cc(C(=O)O)cn4)nc(O)c32)CCCCC1"
  meas-value: 6.14
- compound: "C[C@@H](c1cccc(F)c1)n1ncc2nc(-n3cc(C(=O)O)cn3)nc(O)c21"
  meas-value: 6.29

* * *

Lab note: pIC50 readings collected with human HIF-PHD2 (Homo sapiens, UniProt Q9GZT9) for the following compounds.
pIC50: −log10 of the molar value.

- item-smiles: "O=C(O)c1cnn(-c2nc(O)c3c(cnn3Cc3ccc(-c4ccc(Cl)cc4F)cc3)n2)c1"
  tgt: "human HIF-PHD2 (Homo sapiens, UniProt Q9GZT9)"
  pIC50: 7.70
- item-smiles: "Cc1ccccc1-c1ccc(Cn2ncc3nc(-n4cc(C(=O)O)cn4)nc(O)c32)cc1F"
  tgt: "human HIF-PHD2 (Homo sapiens, UniProt Q9GZT9)"
  pIC50: 7.72
- item-smiles: "CC(C)(Cn1ncc2nc(-n3cc(C(=O)O)cn3)nc(O)c21)Oc1ccc2ccccc2c1"
  tgt: "human HIF-PHD2 (Homo sapiens, UniProt Q9GZT9)"
  pIC50: 7.77
- item-smiles: "O=C(O)c1cnn(-c2nc(O)c3c(cnn3Cc3ccc4ccccc4c3F)n2)c1"
  tgt: "human HIF-PHD2 (Homo sapiens, UniProt Q9GZT9)"
  pIC50: 7.77
